# assay_notes: Her2 expression decrease, cell viability multiplex – SKBR3 breast tumor cells, AlphaScreen, ATP viability, primary screen (AID 461);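 also: percent of carrier control wells set as 100% viability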
# setup_conditions: SKBR3 Her2 protein level, 18-24 h, measured here: SKBR3 viability, ATP luminescence, at 10 µM
observation_type: viability (%)
Write the number in % without appending the unit.

>  <molecule>
O=C1NC(=O)C(CC(=O)N(Cc2ccco2)C2(C(=O)NC3CCCC3)CCCCC2)N1 (centres undefined)

>  <unit_annotation>
%

>  <viability>
99.5

$$$$
>  <molecule>
CC(C)(C)NC(=O)Cn1c(=O)oc2ccc(Cl)cc21

>  <unit_annotation>
%

>  <viability>
96

$$$$
>  <molecule>
O=C(Nc1cccc(Cl)c1)N1CCN(Cc2ccccc2)CC1

>  <unit_annotation>
%

>  <viability>
98.5

$$$$
>  <molecule>
O=C(O)C1CC(=O)N(CCOc2ccccc2)C1 (centres undefined)

>  <unit_annotation>
%

>  <viability>
105

$$$$

Entry under test: `CCc1ccc(N(CC(=O)NC2CCCC2)S(=O)(=O)c2c(C)noc2C)cc1` . Its viability was 102

Entry under test: `COCCNC(=O)CN1C(=O)CSc2ncccc21` . Its viability was 83.5
